# credit: ChEMBL document CHEMBL4831520

# Measured target: Histone-lysine N-methyltransferase EZH2 (Homo sapiens)
# Sequence (Q15910 whole entry): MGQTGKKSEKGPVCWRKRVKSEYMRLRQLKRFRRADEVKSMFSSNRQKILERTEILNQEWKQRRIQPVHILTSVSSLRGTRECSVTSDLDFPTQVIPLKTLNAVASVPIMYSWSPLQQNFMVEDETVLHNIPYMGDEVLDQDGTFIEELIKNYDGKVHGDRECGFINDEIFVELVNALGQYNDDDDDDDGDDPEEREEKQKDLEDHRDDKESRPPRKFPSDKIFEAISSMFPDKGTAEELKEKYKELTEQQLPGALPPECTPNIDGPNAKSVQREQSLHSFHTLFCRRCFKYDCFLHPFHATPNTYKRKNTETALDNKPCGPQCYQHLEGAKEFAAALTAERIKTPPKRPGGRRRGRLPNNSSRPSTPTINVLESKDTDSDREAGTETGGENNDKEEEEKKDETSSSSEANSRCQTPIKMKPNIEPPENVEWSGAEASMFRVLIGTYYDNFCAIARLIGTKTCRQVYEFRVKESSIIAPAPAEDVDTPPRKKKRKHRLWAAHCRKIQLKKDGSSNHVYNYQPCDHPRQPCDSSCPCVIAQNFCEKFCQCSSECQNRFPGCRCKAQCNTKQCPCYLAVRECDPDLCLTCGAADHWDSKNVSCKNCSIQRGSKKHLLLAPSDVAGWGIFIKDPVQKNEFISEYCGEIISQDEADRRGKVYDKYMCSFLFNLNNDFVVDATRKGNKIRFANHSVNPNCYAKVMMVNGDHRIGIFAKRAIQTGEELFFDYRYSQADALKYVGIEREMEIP
Readout type: Kd (s⁻¹)

A. Cc1cc(C)c(CNC(=O)c2cc(-c3ccc(N4CCN(C(=O)c5cc(Cc6n[nH]c(=O)c7ccccc67)ccc5F)CC4)nc3)cc(NC(=O)CC(C)C)c2C)c(=O)[nH]1
B. CC(=O)Nc1cc(-c2ccc(N3CCN(C(=O)c4cc(Cc5n[nH]c(=O)c6ccccc56)ccc4F)CC3)nc2)cc(C(=O)NCc2c(C)cc(C)[nH]c2=O)c1C
Request: I would appreciate it if you could say which entry, A or B , has the lower Kd value. Provide the label of your selected option as the answer.
Response: B

1. CC[C@H](C)n1nc(C)c2c(C(=O)NCc3c(C)cc(C)[nH]c3=O)cc(-c3ccc(N4CCNCC4)nc3)cc21
2. C=C(C)C(=O)N(CC)c1cc(-c2ccc(N3CCN(C(=O)c4cc(Cc5n[nH]c(=O)c6ccccc56)ccc4F)CC3)nc2)cc(C(=O)NCc2c(C)cc(C)[nH]c2=O)c1C
Request: I would appreciate it if you could say which entry, 1 or 2 , has the lower Kd value. Provide the label of your selected option as the answer.
Response: 1

a. CCC(=O)Nc1cc(-c2ccc(N3CCN(C(=O)c4cc(Cc5n[nH]c(=O)c6ccccc56)ccc4F)CC3)nc2)cc(C(=O)NCc2c(C)cc(C)[nH]c2=O)c1C
b. CCC(=O)N(CC)c1cc(-c2ccc(N3CCN(C(=O)c4cc(Cc5n[nH]c(=O)c6ccccc56)ccc4F)CC3)nc2)cc(C(=O)NCc2c(C)cc(C)[nH]c2=O)c1C
Request: Larger number for Kd: a , or b ? Provide the label of your selected option as the answer.
Response: b

---

# Tested on: MDA-MB-468
# Protocol notes: cells
# Assay type: functional, cell-based
# Condition details: Homo sapiens, MDA-MB-468, 72 h
# Description: Antiproliferative activity against human MDA-MB-468 cells assessed as cell viability after 72 hrs by MTT assay
Readout type: IC50 (µM)

>>> df
                               entry_smiles  measured_target  recorded_result
0  Cc1cc(C)c(CNC(=O)c2cccc(-c3ccc(N4CCN(C(=O)c5cc(Cc6n[nH]c(=O)c7ccccc67)ccc5F)CC4)nc3)c2)c(=O)[nH]1       MDA-MB-468             29.7
1  CCNc1cc(-c2ccc(N3CCN(C(=O)c4cc(Cc5n[nH]c(=O)c6ccccc56)ccc4F)CC3)nc2)cc(C(=O)NCc2c(C)cc(C)[nH]c2=O)c1C       MDA-MB-468             9.56

I. COC1CCN(C(=O)c2cc(Cc3n[nH]c(=O)c4ccccc34)ccc2F)CC1
II. CC[C@H](C)n1nc(C)c2c(C(=O)NCc3c(C)cc(C)[nH]c3=O)cc(-c3ccc(N4CCNCC4)nc3)cc21
Request: I would appreciate it if you could say which entry, I or II , has the lower IC50 value. Provide the label of your selected option as the answer.
Response: II

---

# System: MDA-MB-468
# Protocol notes: cells
# Assay type: functional, cell-based
# Condition details: Homo sapiens, MDA-MB-468, 72 h
pIC50: −log10 of the molar value.
Readout type: pIC50

In [3]: df
Out[3]:
                               entry_smiles  measured_target  readout_type  recorded_result
0  Cc1cc(C)c(CNC(=O)c2cc(-c3ccc(N4CCN(C(=O)c5cc(Cc6n[nH]c(=O)c7ccccc67)ccc5F)CC4)nc3)cc(N(C)C)c2C)c(=O)[nH]1       MDA-MB-468         pIC50             4.82
1  Cc1cc(C)c(CNC(=O)c2cc(-c3ccc(N4CCN(C(=O)c5cc(Cc6n[nH]c(=O)c7ccccc67)ccc5F)CC4)nc3)cc(N)c2C)c(=O)[nH]1       MDA-MB-468         pIC50             4.92
2  Cc1cc(C(=O)NCc2c(C)cc(C)[nH]c2=O)cc(-c2ccc(N3CCN(C(=O)c4cc(Cc5n[nH]c(=O)c6ccccc56)ccc4F)CC3)nc2)c1       MDA-MB-468         pIC50             4.49
3  Cc1cc(C)c(CNC(=O)c2cc(-c3ccc(N4CCN(C(=O)c5cc(Cc6n[nH]c(=O)c7ccccc67)ccc5F)CC4)nc3)cc3c2ccn3C(C)C)c(=O)[nH]1       MDA-MB-468         pIC50             4.66

A. Cc1cc(C)c(CNC(=O)c2cc(-c3ccc(N4CCN(C(=O)c5cc(Cc6n[nH]c(=O)c7ccccc67)ccc5F)CC4)nc3)ccc2C)c(=O)[nH]1
B. Cc1cc(C)c(CNC(=O)c2cc(-c3ccc(N4CCN(C(=O)c5cc(Cc6n[nH]c(=O)c7ccccc67)ccc5F)CC4)nc3)cc(NC(=O)CC(C)C)c2C)c(=O)[nH]1
C. Cc1cc(C)c(CNC(=O)c2cc(-c3ccc(N4CCN(C(=O)c5cc(Cc6n[nH]c(=O)c7ccccc67)ccc5F)CC4)nc3)cc3c2cnn3C(C)C)c(=O)[nH]1
Request: Provide the items ranked by increasing pIC50. Reply format: the labels, ordered as requested.
Response: A, C, B
(A: 4.55, C: 4.75, B: 6.12)
